# System: NCI-H522
# ASSAY_PROTOCOL: NCI tumour cell line growth inhibition, 48 h
Calls of active or inactive are those of the source. Rule as the data show it: active = GI50 up to about 1.1 µM and inactive = higher.
EXPERIMENTAL_READOUT: GI50

• O=C(O)c1ccccc1NC(c1ccccc1)c1ccc2cccnc2c1O (stereo not given) = 3.97 µM (inactive)
• CCOC(=O)NN(C(=O)OCC)C(C(=O)c1ccc(Cl)cc1)=C1NCCN1 = > 100 µM (inactive)
• Cc1cc(-c2nc3ccc(F)cc3s2)ccc1NC(=O)[C@H](C)N = 7.74 µM (inactive)
• Cc1cc(NC2=CC(=O)C(=O)c3ccccc32)no1 = 18.5 µM (inactive)
• C#CCn1c(=O)c(C#N)c(O)c2cc3ccccc3nc21 = > 100 µM (inactive)
• CC1=CCC(C(C)(C)NC(=O)c2ccccc2)C/C1=N/O (stereo not given) = > 100 µM (inactive)
• CC(C)C(NC(=O)C(Cc1ccccc1)NC(=O)[C@H]1CCC[C@H]1NC(=O)C(N)Cc1ccc(O)cc1)C(N)=O (stereo not given in full) = > 100 µM (inactive)
• CC(C)(CN1CCCCC1)C(=O)CC(SCCS(=O)(=O)O)c1ccc(Cl)cc1 (stereo not given) = 2.51 µM (inactive)
• c1ccc(N/N=C2\CC(c3ccccc3)Oc3ccccc32)cc1 (stereo not given) = 21.8 µM (inactive)
• O=P1(C(O)c2ccccc2)N(Cc2ccccc2)[C@@H]2CCCC[C@H]2N1Cc1ccccc1 (stereo not given in full) = 20.7 µM (inactive)
